# experimental_target: Ras protein (Homo sapiens)
# test: GDPx_Icagen_IC50: SOS1-mediated guanine nucleotide exchange rate of Ras (mant-GDP)
# Assay type: biochemical
# condition_details: SOS1-initiated exchange
pIC50: −log10 of the molar value.

# record_smiles, pIC50
measured = [
    ("Cc1nnc(SCc2cc(=O)n(-c3nc4ccccc4[nH]3)[nH]2)s1", 5.48),
    ("CN1CCN(Cc2ccc(SCc3cc(=O)n(-c4nc5ccccc5[nH]4)[nH]3)cc2)CC1", 6.30),
    ("Cc1ccc(SCc2cc(=O)n(-c3nc4ccccc4[nH]3)[nH]2)cc1", 5.89),
    ("O=c1cc(CSc2ccc(Cl)c(Cl)c2)[nH]n1-c1nc2ccccc2[nH]1", 6.70),
    ("COc1cccc(SCc2cc(=O)n(-c3nc4ccccc4[nH]3)[nH]2)c1", 6.70),
    ("O=c1cc(CSc2nccc(C(F)(F)F)n2)[nH]n1-c1nc2ccccc2[nH]1", 6.52),
    ("O=c1cc(CSc2ccc(Br)cn2)[nH]n1-c1nc2ccccc2[nH]1", 6.70),
    ("O=c1cc(CSc2nc(-c3ccccc3)cs2)[nH]n1-c1nc2ccccc2[nH]1", 6.40),
]

====

# experimental_target: Ras protein (Homo sapiens, UniProt P01116)
# Sequence (P01116 1-188 isoform P01116-2): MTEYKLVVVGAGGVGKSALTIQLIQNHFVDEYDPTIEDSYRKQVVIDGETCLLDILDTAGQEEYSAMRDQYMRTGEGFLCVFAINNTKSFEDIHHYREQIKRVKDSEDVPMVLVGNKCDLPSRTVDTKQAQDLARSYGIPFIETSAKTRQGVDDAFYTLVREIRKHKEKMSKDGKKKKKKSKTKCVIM
# test: Nucleotide exchange rate IC50 assay (SOS1, mant-GDP), Example 18
# Format: biochemical
The entries below are paired with their reported IC50.
readout_type: IC50

# record_smiles, result
data = [
    ("Cc1nnc(SCc2[nH]n(-c3nc4ccccc4[nH]3)c(=O)c2C)s1", "~800 nM"),
    ("COC(=O)c1ccc2[nH]c(-n3[nH]c(CSc4nnc(C)s4)c(C)c3=O)nc2c1", "~700 nM"),
]

====

# experimental_target: KRAS4B (wild type) (Homo sapiens, UniProt P01116)
# Construct: purchased Cytoskeleton CS-RS03 (K-Ras4B); CS-SOS1-A (SOS1)
# test: K-Ras Nucleotide Exchange Assay-384 (SOS Exchange Assay by Cytoskeleton, GTPx_Cyt_IC50)
# Type: biochemical
# condition_details: 1 μM KRAS4B, 0.05 μM SOS1, 1.5 μM mant-GDP
pIC50: −log10 of the molar value.
Outcome label depends on pIC50 relative to 6: at/above gives yes, below gives no.

# record_smiles, cat
measured = [
    ("Cc1cc(C)nc(SCc2cc(=O)n(-c3nc4ccc(Br)cc4s3)[nH]2)n1", "no"),
    ("O=c1cc(CSc2nccc(C(F)(F)F)n2)[nH]n1-c1nc2ccccc2[nH]1", "yes"),
    ("Cc1nnc(SCc2cc(=O)n(-c3nc4ccccc4s3)[nH]2)s1", "no"),
    ("Cc1cccc(-n2[nH]c(CSc3ccccc3)cc2=O)n1", "no"),
]
